Recorded values, source paper PMC4113814.

System: IL-8
Assay: IL-8 release in supernatants of LPS-treated primary microglial cells (ELISA)
Assay type: cell-based, Wistar rats
Conditions: C3: 5.0 μg/mL, 72 h, LPS-treated
# IL-8 release per entry
readout.kind: IL-8 release (pg/mL)

INSERT INTO results (molecule, readout_kind, readout_units, reported) VALUES
  ('C=C(C)[C@@H]1C/C=C2\C(=O)O[C@@H](C[C@]3(C)CC(=O)[C@@H](CC(=O)C1)O3)[C@@H]2O [Compound 2, sinuleptolide]', 'IL-8 release', 'pg/mL', 108),
  ('C=C(C)[C@@H]1C/C=C(\C(=O)OC)CC(=O)C[C@]2(C)CC(=O)[C@H](CC(=O)C1)O2', 'IL-8 release', 'pg/mL', 247),
  ('C=C(C)[C@@H]1CC(=O)[C@H]2[C@H](C1)[C@@H]1C(=O)O[C@@H]3C[C@@]4(C)O[C@H]2C(=O)[C@@H]4[C@H]13 [Compound 6, ineleganolide]', 'IL-8 release', 'pg/mL', 247),
  ('C=C(C)[C@@H]1C/C=C2\C(=O)O[C@@H](C[C@]3(C)CC(=O)[C@H](CC(=O)C1)O3)[C@@H]2O [Compound 1, 5-epi-sinuleptolide]', 'IL-8 release', 'pg/mL', 241),
  ('C=C(C)C1CCC23OC2C(CC2(C)CC(=O)C(CC(=O)C1)O2)OC3=O (centres unmarked) [Compound 3, scabrolide D]', 'IL-8 release', 'pg/mL', 244);

====

Listing of entries alongside the reported IL-8 release.
Tested on: IL-8
Test: IL-8 release in supernatants of LPS-treated primary microglial cells (ELISA)
Type: cell-based, Wistar rats
Details: C1: 1.0 μg/mL, 72 h, LPS-treated
readout.kind: IL-8 release (pg/mL)

INSERT INTO results (compound, readout_kind, reported) VALUES
  ('C=C(C)[C@@H]1C/C=C2\C(=O)O[C@@H](C[C@]3(C)CC(=O)[C@@H](CC(=O)C1)O3)[C@@H]2O [Compound 2, sinuleptolide]', 'IL-8 release', 249),
  ('C=C(C)[C@@H]1CC(=O)[C@H]2[C@H](C1)[C@@H]1C(=O)O[C@@H]3C[C@@]4(C)O[C@H]2C(=O)[C@@H]4[C@H]13 [Compound 6, ineleganolide]', 'IL-8 release', 247),
  ('C=C(C)C1CCC23OC2C(CC2(C)CC(=O)C(CC(=O)C1)O2)OC3=O (stereo not shown) [Compound 3, scabrolide D]', 'IL-8 release', 247),
  ('C=C(C)[C@@H]1C/C=C2\C(=O)O[C@@H](C[C@]3(C)CC(=O)[C@H](CC(=O)C1)O3)[C@@H]2O [Compound 1, 5-epi-sinuleptolide]', 'IL-8 release', 256);

====

Test system: IL-4
Assay: IL-4 release in supernatants of LPS-treated primary microglial cells (ELISA)
Format: cell-based, Wistar rats
Details: C1: 1.0 μg/mL, 72 h, LPS-treated
IL-4 release values, listed per item
readout.kind: IL-4 release (pg/mL)

INSERT INTO measurements (molecule, reported) VALUES
  ('C=C(C)[C@@H]1C/C=C2\C(=O)O[C@@H](C[C@]3(C)CC(=O)[C@H](CC(=O)C1)O3)[C@@H]2O [Compound 1, 5-epi-sinuleptolide]', 1.9),
  ('C=C(C)[C@@H]1CC(=O)[C@H]2[C@H](C1)[C@@H]1C(=O)O[C@@H]3C[C@@]4(C)O[C@H]2C(=O)[C@@H]4[C@H]13 [Compound 6, ineleganolide]', 1.8),
  ('C=C(C)[C@@H]1C/C=C2\C(=O)O[C@@H](C[C@]3(C)CC(=O)[C@@H](CC(=O)C1)O3)[C@@H]2O [Compound 2, sinuleptolide]', 2.1),
  ('C=C(C)[C@@H]1C/C=C(\C(=O)OC)CC(=O)C[C@]2(C)CC(=O)[C@H](CC(=O)C1)O2 [Compound 4]', 2.2),
  ('C=C(C)C1CCC23OC2C(CC2(C)CC(=O)C(CC(=O)C1)O2)OC3=O (centres unmarked) [Compound 3, scabrolide D]', 1.5);
